Just for reference, ChEMBL document CHEMBL1137445 is where these values come from.

# System: Lytechinus variegatus
# test_description: Antimitotic activity against Lytechinus variegatus at tertiary cleavage stage of egg development
# Type: functional, tissue-based
measure_name: log10 IC50 (log10 of the value in µg/mL)
Values below are the log10 of the recorded IC50, with µg/mL as the unit.

Task item: Provide value of log10 IC50 for this record tested with Lytechinus variegatus: C/C(=C\Cc1c(O)ccc2c1OCC1c3cc4c(cc3OC21)OCO4)CO (stereo unspecified)
Reply: -0.28

Task item: Subsequent entry: Oc1ccc2c(c1)OC[C@H]1c3cc4c(cc3O[C@@H]21)OCO4
Reply: 0.63

Task item: Subsequent entry: COc1cccc2c1C(=O)c1c(O)c3c(c(O)c1C2=O)C[C@@](O)(C(=O)CO)C[C@@H]3O[C@H]1C[C@H](N)[C@H](O)[C@H](C)O1
Reply: -0.47

Task item: Subsequent entry: CC(CO)CCc1cc2c(cc1O)OCC1c3cc4c(cc3OC21)OCO4 (stereo unspecified)
Reply: 0.32

Task item: Subsequent entry: CC1(C)C=Cc2c(ccc3c2OCC2c4cc5c(cc4OC32)OCO5)O1 (stereo unspecified)
Reply: -0.40

Task item: Subsequent entry: CC(C)=CCc1c(O)ccc2c1OCC1c3cc4c(cc3OC21)OCO4 (stereo unspecified)
Reply: 0.68
